assay: Viability qHTS for spleen associated tyrosine kinase inhibitor (SYKi) naive MV4-11 cells (AID 1963823); conditions: MV4-11 AML viability, CellTiter-Glo luminescence, 72 h; series mostly up to 45 µM; further: nearly all actives have a fitted effect of over 40% in size
Results filed as inconclusive are left out. The source made the active and inactive calls. The call rests on the fitted dose curve; in most records, active means well fitted cell-killing curve with a large enough effect; inconclusive means small, poorly fitted or top-dose-only effect, or effect the other way; inactive means no such curve, though single readings can be large or run the other way.
Pick one: T = active, F = inactive

1) C[C@H]1[C@@H]2Cc3ccc(O)cc3[C@@]1(C)CCN2C = F

Q. Hi, do you know how "CC(C)(O)/C=C/C(=O)[C@](C)(O)[C@H]1[C@H](O)C[C@@]2(C)[C@@H]3CC=C4[C@@H](C=C(O)C(=O)C4(C)C)[C@]3(C)C(=O)C[C@]12C" came out in this test?
A. T

Q. Hi, do you know how "CNC(=O)Oc1cccc2ccccc12" came out in this test?
A. F

Q. Hi, do you know how COP(=O)(OC)C(O)C(Cl)(Cl)Cl (stereo not given) came out in this test?
A. F

Q. Hi, do you know how "CCCCCCCCC(=O)NCc1ccc(O)c(OC)c1" came out in this test?
A. F

Q. Hi, do you know how "CN1C(=O)CN=C(c2ccccc2)c2cc([N+](=O)[O-])ccc21" came out in this test?
A. F

Q. Hi, do you know how CC(=O)OC12C(O)C(C)C3(O)C4C=C(C)C(=O)C4CC(CO)=CC3C1C2(C)C (stereo not given) came out in this test?
A. F

Q. Hi, do you know how "Cc1ccc2c(c1)[C@H]1CN(C)CC[C@H]1N2C(=O)CSc1nnnn1-c1ccc(Cl)cc1" came out in this test?
A. F

Q. Hi, do you know how "C[C@]12CC[C@@H](O)C[C@@H]1CC[C@@H]1[C@@H]2CC[C@]2(C)C(=O)[C@@H](Br)C[C@@H]12" came out in this test?
A. T

Q. Hi, do you know how "C[C@]12CC[C@H](O)C[C@H]1CC[C@@H]1[C@@H]2[C@H](O)C[C@]2(C)[C@@H](c3ccc(=O)oc3)CC[C@]12O" came out in this test?
A. T
